# kon listing for each entry below
Target: T1, recombinant human TIGIT (human, UniProt Q495A1 22-141, limits assumed)
T1 construct: recombinant human TIGIT used in Carterra SPR; also called hTIGIT
T1 sequence (looked up): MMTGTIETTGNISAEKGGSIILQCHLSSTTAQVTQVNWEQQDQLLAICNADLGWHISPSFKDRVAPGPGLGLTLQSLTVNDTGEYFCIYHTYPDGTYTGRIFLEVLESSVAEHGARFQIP
Experiment: SPR Carterra, average
State the answer as a number, implicitly in M⁻¹ s⁻¹.

Some binders with recorded kon:
Binder | kon (M⁻¹ s⁻¹)
TIGIT-SC123 (Fc fusion, VHH-Fc fusion in assay) VHH: EVQLVESGGGLVQPGGSLRLSCAASGSIFSGNTMGWFRQAPGKEREFVAAISWSGAYTEYADSVKGRFTISADNSKNTAYLQMNSLKPEDTAVYYCAREGYYGSGSYLVYWGQGTLVTVSS | 49100
TIGIT-SC200 (Fc fusion, VHH-Fc fusion in assay) VHH: EVQLVESGGGLVQPGGSLRLSCAASGNTFSGGFMGWFRQAPGKEREWVASVLRGGYTWYADSVKGRFTISADNSKNTAYLQMNSLKPEDTAVYYCTRDGGFDPWGQGTLVTVSS | 290000
TIGIT-SC209 (Fc fusion, VHH-Fc fusion in assay) VHH: EVQLVESGGGLVQPGGSLRLSCAASGFLFNSYWMGWFRQAPGKEREFVAAIWRSGTLKAYADSVKGRFTISADNSKNTEYLQMNSLKPEDTAVYYCARDDYGDYRIYFQHWGQGTLVTVSS | 15100

# ---- query binder ----
Ask: Suppose we examine the binder TIGIT-SC195 (Fc fusion) VHH: EVQLVESGGGLVQPGGSLRLSCAASGFAFSSDWMGWFRQAPGKEREWVASVLRGGYTWYADSVKGRFTISADNSKNTAYLQMNSLKPEDTAVYYCARGEGFDYWGQGTLVTVSS ; what kon value has been reported?
Result: 296000
